- Study System: Disintegrin and metalloproteinase domain-containing protein 10 (Homo sapiens)
- Protocol Text: blockers of ADAM10 peptide cleavage – biochemical, QFRET, HTS, primary screen (AID 720582);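 further: 0% = DMSO wells while the 100% control is not disclosed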
- Condition Label: recombinant ADAM10, EDANS/DABCYL FRET peptide cleavage, 3 h; at 7 µM; stronger effect = higher value
In all, about 370,000 compounds went through this assay and about 2,300 (0.62%) were called active. Only a selection was taken, and actives are over-represented in it overall.
# reported inhibition; entries follow

{"columns": ["Molecule", "Readout Units", "inhibition"],
 "data": [
  ["COC(=O)[C@]12C[C@H](CC(=O)NCc3ccccc3)C(=O)N(CCc3ccc(OC)c(OC)c3)C1=C[C@H](C(C)(C)C)O[C@@H]2C", "%", 10.1],
  ["COc1cc(Cl)cc(C2NC(=O)NC(C)=C2C(=O)NCc2ccccc2)c1O (stereo not drawn)", "%", -4.94],
  ["COC(=O)[C@@]12C[C@@H](CC(=O)NCCCCc3ccccc3)C(=O)N(CCc3ccc(OC)c(OC)c3)C1=CCC(C)(C)C2", "%", 20.4],
  ["Cc1ccc(CC2(C)C(=O)Nc3ccc(OC(F)(F)F)cc32)cc1 (stereo not drawn)", "%", 5.38],
  ["CC(=O)Nc1ccc(OC[C@@H](O)CN2CCC(C(O)(c3ccccc3)c3ccccc3)CC2)cc1", "%", 4.68],
  ["CCOc1ccc(N(CC(=O)Nc2c(C)n(C)n(-c3ccccc3)c2=O)S(=O)(=O)c2ccc(Cl)s2)cc1", "%", 7.29],
  ["C=CCN1C(=O)[C@@H](CC(=O)NCC2CCCCC2)[C@]2(C(=O)OC)CCCCC=C12", "%", 5.05],
  ["COC(=O)[C@@]12C[C@@H](CC(=O)NCCCCc3ccccc3)C(=O)N(Cc3ccccc3)C1=CCC(C)(C)C2", "%", 14.6]
]}

###

# reported inhibition; entries follow
- Study System: Disintegrin and metalloproteinase domain-containing protein 10 (Homo sapiens) (UniProt O14672)
- Sequence (O14672 214-748 limits assumed): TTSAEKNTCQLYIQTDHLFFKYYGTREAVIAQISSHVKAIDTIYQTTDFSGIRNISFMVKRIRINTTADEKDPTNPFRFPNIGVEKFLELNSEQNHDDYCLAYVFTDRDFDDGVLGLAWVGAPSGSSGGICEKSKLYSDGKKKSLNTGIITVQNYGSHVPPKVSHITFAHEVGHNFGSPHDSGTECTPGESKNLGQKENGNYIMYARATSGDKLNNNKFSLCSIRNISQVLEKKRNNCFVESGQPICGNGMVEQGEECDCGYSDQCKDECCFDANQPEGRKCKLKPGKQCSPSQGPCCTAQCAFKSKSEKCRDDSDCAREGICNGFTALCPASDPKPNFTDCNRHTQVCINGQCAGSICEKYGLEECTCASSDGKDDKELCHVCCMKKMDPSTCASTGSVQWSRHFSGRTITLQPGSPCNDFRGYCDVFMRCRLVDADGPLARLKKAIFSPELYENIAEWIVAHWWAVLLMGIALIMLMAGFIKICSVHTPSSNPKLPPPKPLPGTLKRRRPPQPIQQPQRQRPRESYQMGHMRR
- Protocol Text: blockers of ADAM10 peptide cleavage – biochemical, QFRET, HTS, primary screen (AID 720582);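 further: 0% = DMSO wells while the 100% control is not disclosed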
- Condition Label: recombinant ADAM10, EDANS/DABCYL FRET peptide cleavage, 3 h; at 7 µM; stronger effect = higher value
The whole screen tested about 370,000 compounds, of which about 2,300 (0.62%) were called active. Many of the other results were omitted from the sample, so actives are more common in it than they were.
Measured Property: inhibition (%)

{"columns": ["Compound", "Recorded Number"],
 "data": [
  ["O=C(CCS(=O)(=O)c1ccccc1)Nc1ccc(Cl)c(Cl)c1", -2.68],
  ["C=CCOC/C=C/C#CCN(CC=C)Cc1ccc(OC)cc1OC", -0.01],
  ["CC(C)N1CCCCC(NC(=O)c2ccc3ccccc3c2)C1=O (stereo not given)", -1.93],
  ["CCNC(=O)CN(c1ccc(C)cc1)S(=O)(=O)c1ccc(SC)cc1", 2.9],
  ["COc1ccc(CN2C(=O)N3Cc4cc(OC)ccc4C3CS2(=O)=O)cc1 (stereo not given)", 2.06],
  ["O=C(CC(O)(C(F)(F)F)C(F)(F)F)Nc1ccc(Cl)c(Cl)c1", 23.7],
  ["COC(=O)[C@]12C[C@H](CC(=O)NCc3ccccc3)C(=O)N(Cc3ccccc3)C1=C[C@H](COCc1ccccc1)O[C@@H]2C", 6.96],
  ["C=C(C)COc1ccc(-c2n[nH]c(C)c2-c2ccccc2)c(O)c1", 23.7],
  ["CCCC(=O)Nc1cccc(NC(=S)NC(=O)C(C)Oc2ccc(Cl)cc2Cl)c1 (stereo not given)", 6.41],
  ["O=C(Nc1ccc(Cl)c(Cl)c1)N1CC=C(c2ccccc2)CC1", -19.8]
]}

Cited source for all entries: PubChem BioAssay AID720582
